Values compiled from ChEMBL document CHEMBL4888484.

- Tested on: Plasmodium falciparum
- Test details: Confirmatory screen in NF54 nanoGlo assay, in single point, at 2uM, 72h
- Type: functional, Erythrocyte
- Cond: timepoint 72 hour
Screen size: about 4,800 compounds; about 420 (8.8%) showed an effect of 50% or more. Only a selection was taken, and strong results are over-represented in it overall.
Observation type: % Inhibition (%)
Kindly provide the numeric value in % only, without the unit symbol.

The examples below pair each entry with its known result.
{"columns": ["Molecule", "% Inhibition [%]"],
 "data": [
  ["CC1Cc2cc(-c3ccc(CNC(=O)C(C)(O)C4CC4)cc3)ccc2O1 (stereo unspecified)", 4],
  ["CCC(=O)Nc1nc2c(OC)cc(NS(=O)(=O)c3c(C)noc3C)cc2s1", -4]
]}

What value of % Inhibition has been recorded for this entry: CC(C)[C@@H]1CN(C(=O)c2ccncc2)c2ccccc2N1
-7

What value of % Inhibition has been recorded for this entry: CC(O)CC(C)(C)CNC1CCCc2occc21 (stereo unspecified)
-12

What value of % Inhibition has been recorded for this entry: C#Cc1cc(C(F)(F)F)cc(C#N)c1N
5

What value of % Inhibition has been recorded for this entry: Cc1ccccc1S(=O)(=O)NCc1nnc(C(=O)Nc2ccc(F)cc2F)s1
-5

What value of % Inhibition has been recorded for this entry: Cc1cc(NC(=O)c2ccccn2)n(-c2nc3ccccc3o2)n1
88

What value of % Inhibition has been recorded for this entry: COc1cc(C)c2[nH]c3c(c(=O)c2c1)CN(CC(=O)Nc1ccc2c(c1)OCCO2)CC3
16

What value of % Inhibition has been recorded for this entry: CC(=O)c1cc(-c2cc(O)cc(CC[C@H]3CCCCN3)c2)ccc1O
78

What value of % Inhibition has been recorded for this entry: COCCN1CCc2c(C)nc3c(-c4ccc(OC)c(OC)c4)cnn3c21
6

What value of % Inhibition has been recorded for this entry: CC(C)(C)OCCON=C(N)c1cccs1
10
